# target_desc: purified human Factor XIa (Homo sapiens (Human))
# assay_method_text: Factor XIa chromogenic substrate (S-2366) inhibition assay
# Type: biochemical
# experimental_context: substrate S-2366, Table 1
Counter-ions that a name gives are not always drawn.
measurement_kind: Ki (nM)

CC(=O)c1ccc(Cl)c(F)c1/C=C/C(=O)N1CCc2c(cccc2N2CCS(=O)(=O)CC2)[C@@H]1C(=O)Nc1ccc(C(=O)O)cc1 = 955
CCOC(=O)c1ccc(NC(=O)[C@H]2c3cccc(N4CCNCC4=O)c3CCN2C(=O)/C=C/c2c(-n3cnnn3)ccc(Cl)c2F)cc1 = 1690
CCOC(=O)c1ccc(NC(=O)C2c3cccc(N4CCN(C)CC4)c3CCN2C(=O)C=Cc2c(-n3cnnn3)ccc(Cl)c2F)cc1 (centres unmarked) = 1220

P: CC(C)(C)OC(=O)c1ccc(NC(=O)[C@@H]2c3cccc(N4CCCCC4=O)c3CCN2C(=O)/C=C/c2c(-n3cnnn3)ccc(Cl)c2F)cc1
Q: CCOC(=O)c1ccc(NC(=O)[C@H]2c3cccc(N4CCN(C)CC4=O)c3CCN2C(=O)/C=C/c2c(-n3cnnn3)ccc(Cl)c2F)cc1 [Example 191, TFA Salt]
R: COC(=O)Nc1ccc(NC(=O)C2c3cccc(N4CCNCC4)c3CCN2C(=O)/C=C/c2c(-n3cnnn3)ccc(Cl)c2F)cc1 (centres unmarked)
// sort entries: Ki, high to low List the labels in the requested order.
Q, P, R

a: N[C@H]1CC[C@H](NC(=O)C2c3cccc(N4CCC(N5CCCC5)CC4)c3CCN2C(=O)/C=C/c2c(-n3cnnn3)ccc(Cl)c2F)CC1 (mixture of isomers)
b: COC(=O)Nc1ccc(NC(=O)C2c3cccc(N4CCC(N5CCCC5)CC4)c3CCN2C(=O)C=Cc2c(-n3cnnn3)ccc(Cl)c2F)cc1 (centres unmarked)
c: CC(C)(C)OC(=O)c1ccc(NC(=O)C2c3cccc(N4CCCN(C(=O)OC(C)(C)C)CC4)c3CCN2C(=O)/C=C/c2c(-n3cnnn3)ccc(Cl)c2F)cc1 (racemic)
d: CCOC(=O)c1ccc(NC(=O)C2c3cccc(N4CCOCC4)c3CCN2C(=O)/C=C/c2c(-n3cnnn3)ccc(Cl)c2F)cc1 (racemic)
e: CCOC(=O)c1ccc(NC(=O)[C@H]2c3cccc(N4CCC(N(C)C)CC4)c3CCN2C(=O)/C=C/c2c(-n3cnnn3)ccc(Cl)c2F)cc1
// sort entries: Ki, high to low List the labels in the requested order.
c, b, e, a, d
(c: 2570 nM, b: 632 nM, e: 133 nM, a: 74.5 nM, d: 34.5 nM)

P: O=C(NC1CCCNC1)C1c2cccc(N3CCC(N4CCCC4)CC3)c2CCN1C(=O)C=Cc1c(-n2cnnn2)ccc(Cl)c1F (mixture of isomers)
Q: CCOC(=O)c1ccc(NC(=O)C2c3cccc(N4CCCCC4=O)c3CCN2C(=O)/C=C/c2c(-n3cnnn3)ccc(Cl)c2F)cc1 (racemic)
R: CC1(C)Cc2c(cccc2N2CCCCC2)[C@H](C(=O)Nc2ccc(C(=O)O)cc2)N1C(=O)/C=C/c1c(-n2cnnn2)ccc(Cl)c1F
S: CC(C)NC(=O)C1c2cccc(N3CCC(N4CCCC4)CC3)c2CCN1C(=O)/C=C/c1c(-n2cnnn2)ccc(Cl)c1F (racemic)
Exam item: list the entries in increasing order of Ki. List the labels in the requested order.
Q, S, R, P
(Q: 20.6 nM, S: 47.1 nM, R: 844 nM, P: 4620 nM)

----------
# target_desc: UniProt P03951
# assay_method_text: Factor XIa chromogenic substrate (S-2366) inhibition assay
# Assay type: biochemical
# experimental_context: substrate S-2366, activity ranges, Table A
pKi: −log10 of the molar value.
measurement_kind: pKi

CN1CCN(c2cccc3c2CCN(C(=O)C=Cc2c(-n4cnnn4)ccc(Cl)c2F)C3C(=O)Nc2ccc(C(=O)O)cc2)CC1 (centres unmarked) [compound 30] = 6.30 to 7.00
CC(=O)c1ccc(Cl)c(F)c1C=CC(=O)N1CCc2c(cccc2N2CCC(OCCN(C)C)CC2)C1C(=O)Nc1ccc(C(=O)O)cc1 (centres unmarked) = > 8.30
CC(=O)N1CCN(c2cccc3c2CC(C)(C)N(C(=O)/C=C/c2c(-n4cnnn4)ccc(Cl)c2F)[C@H]3C(=O)Nc2ccc(C(=O)O)cc2)CC1 = 8.00 to 8.30
O=C(O)c1ccc(NC(=O)[C@@H]2c3cccc(N4CCC(O)CC4)c3CCN2C(=O)/C=C/c2c(-n3cnnn3)ccc(Cl)c2F)cc1 = > 8.30
O=C(N[C@H]1CC[C@H](O)CC1)C1c2cccc(N3CCC(N4CCCC4)CC3)c2CCN1C(=O)/C=C/c1c(-n2cnnn2)ccc(Cl)c1F (mixture of isomers) = 8.00 to 8.30
O=C(O)c1ccc(NC(=O)C2c3cccc(N4CCC(N5CCCC5)CC4)c3CCN2C(=O)/C=C/c2ccccc2F)cc1 (racemic) = 8.00 to 8.30

Identify measured pKi corresponding to CC(=O)c1ccc(Cl)c(F)c1/C=C/C(=O)N1CCc2c(cccc2N2CCC(N3CCOCC3)CC2)C1C(=O)Nc1ccc(C(=O)O)cc1 (racemic)
> 8.30

Identify measured pKi corresponding to O=C(O)c1ccc(NC(=O)[C@@H]2c3cccc(N4CCC(N5CCOCC5)CC4)c3CCN2C(=O)/C=C/c2c(-n3cnnn3)ccc(Cl)c2F)cc1
> 8.30

----------
# target_desc: purified human Factor XIa (Homo sapiens (Human))
# assay_method_text: Factor XIa chromogenic substrate (S-2366) inhibition assay
# Type: biochemical
# experimental_context: substrate S-2366, activity ranges, Table A
measurement_kind: Ki

Identify measured Ki corresponding to CC(=O)OC1CCN(c2cccc3c2CCN(C(=O)/C=C/c2c(-n4cnnn4)ccc(Cl)c2F)C3C(=O)Nc2ccc(C(=O)O)cc2)CC1 (racemic) [Example 137]
< 5 nM

Identify measured Ki corresponding to O=C(NC1CC1)c1ccc(NC(=O)C2c3cccc(N4CCNCC4)c3CCN2C(=O)/C=C/c2cc(Cl)c(F)cc2-n2cnnn2)cc1 (racemic) [Example 67]
100 to 500 nM

Identify measured Ki corresponding to CCOC(=O)c1ccc(NC(=O)C2c3cccc(N4CCC(C(=O)N5CCCC5)CC4)c3CCN2C(=O)/C=C/c2c(-n3cnnn3)ccc(Cl)c2F)cc1 (racemic) [Example 134]
< 5 nM

----------
# target_desc: purified human Factor XIa (Homo sapiens (Human), UniProt P03951)
# Sequence (P03951 388-625): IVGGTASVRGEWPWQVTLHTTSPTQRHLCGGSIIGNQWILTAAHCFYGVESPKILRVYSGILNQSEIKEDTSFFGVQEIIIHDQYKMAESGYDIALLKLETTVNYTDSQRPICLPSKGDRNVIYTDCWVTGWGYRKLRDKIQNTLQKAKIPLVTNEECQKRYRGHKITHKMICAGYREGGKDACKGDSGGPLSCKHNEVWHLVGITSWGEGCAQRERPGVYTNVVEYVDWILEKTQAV
# Sequence (P03951 19-387 partner): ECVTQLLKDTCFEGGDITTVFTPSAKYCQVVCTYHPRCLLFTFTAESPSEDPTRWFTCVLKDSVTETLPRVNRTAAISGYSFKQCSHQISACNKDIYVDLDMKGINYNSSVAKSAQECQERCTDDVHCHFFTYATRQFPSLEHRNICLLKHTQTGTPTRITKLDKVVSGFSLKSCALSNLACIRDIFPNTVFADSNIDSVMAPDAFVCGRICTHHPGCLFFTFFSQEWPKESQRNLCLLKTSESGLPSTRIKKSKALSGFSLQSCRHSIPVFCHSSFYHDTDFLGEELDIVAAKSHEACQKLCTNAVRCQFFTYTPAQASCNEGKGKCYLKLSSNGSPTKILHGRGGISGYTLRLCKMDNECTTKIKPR
# assay_method_text: Factor XIa chromogenic substrate (S-2366) inhibition assay
# Type: biochemical
# experimental_context: substrate S-2366, activity ranges, Table A
pKi: −log10 of the molar value.
Below, each entry is listed with its recorded pKi.

Here's what some known entries look like.
CCOC(=O)c1ccc(NC(=O)C2c3cccc(N4CCN(C)CC4)c3CCN2C(=O)C=Cc2c(-n3cnnn3)ccc(Cl)c2F)cc1 (stereo not drawn) [compound 29] = 8.00 to 8.30
CCOC(=O)c1ccc(NC(=O)C2c3cccc(N4CCC5(CCN(C)C5=O)CC4)c3CCN2C(=O)C=Cc2c(-n3cnnn3)ccc(Cl)c2F)cc1 (stereo not drawn) [Example 110] = 8.00 to 8.30

Here is another compound to look at.
Identify measured pKi corresponding to COC(=O)N1CCN(c2cccc3c2CCN(C(=O)/C=C/c2c(-n4cnnn4)ccc(Cl)c2F)C3C(=O)Nc2ccc(C#N)cc2)CC1 (stereo not drawn) [Example 26]
8.00 to 8.30

----------
# target_desc: purified human Factor XIa (Homo sapiens (Human))
# assay_method_text: Factor XIa chromogenic substrate (S-2366) inhibition assay
# Format: biochemical
# experimental_context: substrate S-2366, activity ranges, Table A
Below, each entry is listed with its recorded Ki.

O=C(Nc1ccc(Cl)cc1)C1c2cccc(N3CCC(N4CCCC4)CC3)c2CCN1C(=O)/C=C/c1c(-n2cnnn2)ccc(Cl)c1F (racemic) = < 5 nM
O=C(OC1CCCC1)c1ccc(NC(=O)C2c3cccc(N4CCC(N5CCCC5)CC4)c3CCN2C(=O)/C=C/c2c(-n3cnnn3)ccc(Cl)c2F)cc1 (racemic) = < 5 nM
CCOC(=O)c1cc(C)n(-c2cccc3c2CCN(C(=O)/C=C/c2c(-n4cnnn4)ccc(Cl)c2F)C3C(=O)Nc2ccc(C(=O)O)cc2)n1 (stereo not drawn) = < 5 nM
COc1ccc(Cl)c(F)c1/C=C/C(=O)N1CCc2c(cccc2N2CCC(N3CCCC3)CC2)C1C(=O)Nc1ccc(C(=O)O)cc1 (racemic) = < 5 nM

Identify measured Ki corresponding to O=C(O)c1ccc(NC(=O)C2c3cccc(N4CCC(N5CCCC5)CC4)c3CCN2C(=O)/C=C/c2c(F)ccc(Cl)c2F)cc1 (racemic)
< 5 nM

Identify measured Ki corresponding to N#CC1CCN(c2cccc3c2CCN(C(=O)/C=C/c2c(-n4cnnn4)ccc(Cl)c2F)C3C(=O)Nc2ccc(C(=O)O)cc2)CC1 (racemic)
< 5 nM

----------
# target_desc: purified human Factor XIa (Homo sapiens (Human), UniProt P03951)
# assay_method_text: Factor XIa chromogenic substrate (S-2366) inhibition assay
# Type: biochemical
# experimental_context: substrate S-2366, activity ranges, Table A
pKi: −log10 of the molar value.
measurement_kind: pKi

Here's what some known entries look like.
O=C(O)c1ccc(NC(=O)[C@@H]2c3cccc(N4CCC5(CC4)OCCO5)c3CCN2C(=O)/C=C/c2c(-n3cnnn3)ccc(Cl)c2F)cc1 = > 8.30
O=C(Nc1ccccc1)C1c2cccc(N3CCNCC3)c2CCN1C(=O)/C=C/c1c(-n2cnnn2)ccc(Cl)c1F (stereo not drawn) = 8.00 to 8.30

Here is another molecule to look at.
Identify measured pKi corresponding to O=C(Nc1ccc(F)cc1)C1c2cccc(N3CCNCC3)c2CCN1C(=O)/C=C/c1c(-n2cnnn2)ccc(Cl)c1F (stereo not drawn)
8.00 to 8.30
